System: HCI-010 (organoid from a breast cancer xenograft)
TEST_PROTOCOL: CTG-3D luminescence at 96 h relative to day-0 seeding control (ratio to day 0); higher = more growth / less cytotoxicity; PDxO 3D drug screen (set 2), 96 h, CTG-3D normalised to day-0 seeding control.
COND: 100 µM; days in culture: 164
QUANTITY: CTG-3D luminescence at 96 h
Numbers only.

Answered cases to consult:
1. CS(=O)(=O)CCNCc1ccc(-c2ccc3ncnc(Nc4ccc(OCc5cccc(F)c5)c(Cl)c4)c3c2)o1    0.000987
2. CCOc1ccn(-c2ccc(F)cc2)c(=O)c1C(=O)Nc1ccc(Oc2ccnc(N)c2Cl)c(F)c1    0.248
3. CO[C@H]1C[C@@H]2CC[C@@H](C)[C@@](O)(O2)C(=O)C(=O)N2CCCC[C@H]2C(=O)O[C@H]([C@H](C)C[C@@H]2CC[C@@H](O)[C@H](OC)C2)CC(=O)[C@H](C)/C=C(\C)[C@@H](O)[C@@H](OC)C(=O)[C@H](C)C[C@H](C)/C=C/C=C/C=C/1C    0.0097

Shift focus to the following entry.
Lookup: Fill in reported CTG-3D luminescence at 96 h for this entry: `CC(=O)O[C@@]12CO[C@@H]1C[C@H](O)[C@@]1(C)C(=O)[C@H](O)C3=C(C)[C@@H](OC(=O)[C@H](O)[C@@H](NC(=O)OC(C)(C)C)c4ccccc4)C[C@@](O)([C@@H](OC(=O)c4ccccc4)[C@H]21)C3(C)C`
Found: 0.00438

----------
Test system: HCI-016 (organoid from a triple-negative breast cancer xenograft)
TEST_PROTOCOL: CTG-3D luminescence at 96 h relative to day-0 seeding control (ratio to day 0); higher = more growth / less cytotoxicity; PDxO 3D drug screen (set 2), 96 h, CTG-3D normalised to day-0 seeding control.
COND: 0.1 µM; days in culture: 397
QUANTITY: CTG-3D luminescence at 96 h

1. CS(=O)(=O)CCNCc1ccc(-c2ccc3ncnc(Nc4ccc(OCc5cccc(F)c5)c(Cl)c4)c3c2)o1    2.38
2. CC(C)n1nc(-c2ccc3oc(N)nc3c2)c2c(N)ncnc21    1.2
3. C[C@@H](Nc1cc(F)cc(F)c1)c1cc(C(=O)N(C)C)cc2c(=O)cc(N3CCOCC3)oc12    1.76

Shift focus to the following entry.
Lookup: Fill in reported CTG-3D luminescence at 96 h for this entry: `CO[C@H]1C[C@@H]2CC[C@@H](C)[C@@](O)(O2)C(=O)C(=O)N2CCCC[C@H]2C(=O)O[C@H]([C@H](C)C[C@@H]2CC[C@@H](O)[C@H](OC)C2)CC(=O)[C@H](C)/C=C(\C)[C@@H](O)[C@@H](OC)C(=O)[C@H](C)C[C@H](C)/C=C/C=C/C=C/1C`
Found: 1.35

----------
Task for the reader: assign each of the following compounds its reported CTG-3D luminescence at 96 h.
Test system: HCI-019 (organoid from a triple-negative breast cancer xenograft)
TEST_PROTOCOL: CTG-3D luminescence at 96 h relative to day-0 seeding control (ratio to day 0); higher = more growth / less cytotoxicity; PDxO 3D drug screen, 96 h, CTG-3D normalised to day-0 seeding control.
COND: 12.5 pM; days in culture: 110
Answers are plain numbers.

Answered cases to consult:
1) C[C@@H]1COCCN1c1cc(C2([S@](C)(=N)=O)CC2)nc(-c2cc[nH]c3nccc2-3)n1 [ceralasertib]    1.9
2) COc1cc2c(Oc3ccc4[nH]c(C)cc4c3F)ncnc2cc1OCCCN1CCCC1 [cediranib]    1.88
3) CC(C)n1nc(-c2ccc3oc(N)nc3c2)c2c(N)ncnc21 [sapanisertib]    1.88
4) C/C=C1\NC(=O)[C@H]2CSSCC/C=C/[C@H](CC(=O)N[C@H](C(C)C)C(=O)N2)OC(=O)[C@H](C(C)C)NC1=O [romidepsin]    1.6

Lookup: Fill in reported CTG-3D luminescence at 96 h for this entry: NC(=O)Nc1cc(-c2cccc(F)c2)sc1C(=O)N[C@H]1CCCNC1 [AZD7762]
Found: 2.48
